tested on: HepG2-ACTB-RAB5A; assay: phenotypically active (imaging signature differs from DMSO and reproducible) at any of 0.3-9 uM (binary (1 = active, 0 = inactive)); higher = active; conditions: treatment time: 24 h
Structures can show the parent of a compound that is named as a salt.
Reported phenotypically active by item:
readoutLabel: phenotypically active

>  <compound>
C[N+]1(C)[C@@H]2C[C@@H](OC(=O)C(O)(c3cccs3)c3cccs3)C[C@H]1[C@@H]1O[C@@H]12 [Tiotropium bromide]

>  <readoutLabel>
phenotypically active

>  <resultNumber>
0

$$$$
>  <compound>
N=C(N)NC(=O)Cc1c(Cl)cccc1Cl

>  <readoutLabel>
phenotypically active

>  <resultNumber>
0

$$$$
>  <compound>
Cc1ccc2ccc(C(Nc3ccccc3)c3ccccc3)c(O)c2n1 (centres undefined)

>  <readoutLabel>
phenotypically active

>  <resultNumber>
0

$$$$
>  <compound>
CCOC(=O)C1=C(C)NC(=S)N[C@H]1c1cccc(O)c1

>  <readoutLabel>
phenotypically active

>  <resultNumber>
0

$$$$
>  <compound>
CC(C)(N)c1cc(C(=O)N[C@@H]2CCc3ccc(OC4=C5CCC(=O)N=C5NC=C4)cc3C2)cc(C(F)(F)F)c1 [ML 786 dihydrochloride]

>  <readoutLabel>
phenotypically active

>  <resultNumber>
1

$$$$
>  <compound>
O=C(Nc1ccccc1)c1cc([N+](=O)[O-])ccc1Cl

>  <readoutLabel>
phenotypically active

>  <resultNumber>
1

$$$$
>  <compound>
Cc1cc(C(=O)NNCc2ccccc2)no1

>  <readoutLabel>
phenotypically active

>  <resultNumber>
0

$$$$
>  <compound>
CN1CC[C@H](c2c(O)cc(O)c3c(=O)cc(-c4ccccc4Cl)oc23)[C@H](O)C1 [Flavopiridol hydrochloride]

>  <readoutLabel>
phenotypically active

>  <resultNumber>
1

$$$$
>  <compound>
CCCOc1ccn2c(C(C)=O)cc(-c3ccccc3S(C)(=O)=O)c2c1

>  <readoutLabel>
phenotypically active

>  <resultNumber>
0

$$$$

###

system: WPMY1-CANX-COX4; assay: lowest phenotypically active concentration; higher = less potent; details: treatment time: 24 h
Counter-ions that a name gives are not always drawn.
readoutLabel: lowest phenotypically active concentration (µM)

>  <molecule>
O=S(=O)(c1cccc2cnccc12)N1CCCNCC1

>  <limitSign>
=

>  <resultNumber>
3

$$$$
>  <molecule>
Cc1ccc(NC(=O)c2ccc(CN3CCN(C)CC3)cc2)cc1Nc1nc(-c2cccnc2)cs1

>  <limitSign>
=

>  <resultNumber>
3

$$$$
>  <molecule>
CCOC(=O)Nc1cc(-c2ccc(C)c(NS(C)(=O)=O)c2)nn2c(C)nnc12

>  <limitSign>
=

>  <resultNumber>
1

$$$$
>  <molecule>
CCC(=O)N1CCN(c2ccc(-n3c(=O)ccc4cnc5ccc(-c6cnc7ccccc7c6)cc5c43)cc2C(F)(F)F)CC1

>  <limitSign>
≤

>  <resultNumber>
0.3

$$$$
>  <molecule>
NCCCCNS(=O)(=O)c1ccc2c(Cl)cccc2c1 [W-13 hydrochloride]

>  <limitSign>
=

>  <resultNumber>
9

$$$$
>  <molecule>
O=C(CCCCCCC(=O)Nc1ccccc1)NO

>  <limitSign>
≤

>  <resultNumber>
0.3

$$$$
>  <molecule>
COc1ccc(-c2cnc(-c3cccc4c3-c3ccccc3C4=O)o2)cc1

>  <limitSign>
≤

>  <resultNumber>
0.3

$$$$
>  <molecule>
COc1ccc2cc1Oc1ccc(cc1)C[C@H]1c3cc(c(OC)cc3CCN1C)Oc1c(OC)c(OC)cc3c1[C@H](C2)N(C)CC3

>  <limitSign>
=

>  <resultNumber>
1

$$$$
>  <molecule>
COc1cc2ncnc(Nc3cccc(Br)c3)c2cc1OC

>  <limitSign>
=

>  <resultNumber>
9

$$$$
>  <molecule>
COc1ccc2[nH]c(C(=O)c3ccccc3)cc2c1

>  <limitSign>
=

>  <resultNumber>
3

$$$$
>  <molecule>
Cc1c(NC(=O)OC[C@@H]2COCCN2)cn2ncnc(Nc3ccc4c(cnn4Cc4cccc(F)c4)c3)c12

>  <limitSign>
=

>  <resultNumber>
3

$$$$
>  <molecule>
N#Cc1ccc2ncnc(NCCc3ccccc3)c2c1

>  <limitSign>
=

>  <resultNumber>
3

$$$$
>  <molecule>
COC(=O)Nc1nc2ccc(C(=O)c3cccs3)cc2[nH]1

>  <limitSign>
≤

>  <resultNumber>
0.3

$$$$
>  <molecule>
O=C(NC(NC(=S)Nc1ccc(F)c([N+](=O)[O-])c1)C(Cl)(Cl)Cl)C(c1ccccc1)c1ccccc1 (stereo not given)

>  <limitSign>
=

>  <resultNumber>
9

$$$$
>  <molecule>
Cc1cc(F)c(Nc2ncnc3cc(OCc4ccccc4)ccc23)cc1O

>  <limitSign>
=

>  <resultNumber>
3

$$$$
>  <molecule>
Cc1cnc(NC(=O)Nc2cc(Br)c(C)cc2OC[C@@H]2CNCCO2)cn1

>  <limitSign>
=

>  <resultNumber>
1

$$$$
>  <molecule>
C=C1CN(Cc2ccc(C(=O)Nc3ccccc3N)cc2)C(=O)c2ccccc21

>  <limitSign>
≤

>  <resultNumber>
0.3

$$$$
>  <molecule>
COC(=O)C1=CO[C@@H](C)[C@H]2CN3CCc4c([nH]c5ccccc45)[C@@H]3C[C@H]12 [Ajmalicine hydrochloride]

>  <limitSign>
=

>  <resultNumber>
9

$$$$
>  <molecule>
O=c1cc(-c2cccc3c2Sc2ccccc2S3)oc(N2CCOCC2)c1

>  <limitSign>
=

>  <resultNumber>
9

$$$$
>  <molecule>
CC(C)(C)c1cnc(CSc2cnc(NC(=O)C3CCNCC3)s2)o1

>  <limitSign>
≤

>  <resultNumber>
0.3

$$$$
>  <molecule>
NC(=O)Nc1cc(-c2cccc(F)c2)sc1C(=O)N[C@H]1CCCNC1 [AZD 7762 hydrochloride]

>  <limitSign>
≤

>  <resultNumber>
0.3

$$$$
>  <molecule>
COc1cc(C)c(Sc2cnc(NC(=O)c3ccc(CNC(C)C(C)(C)C)cc3)s2)cc1C(=O)N1CCN(C(C)=O)CC1 (stereo not given)

>  <limitSign>
=

>  <resultNumber>
3

$$$$
>  <molecule>
COc1cc([C@@H]2c3cc4c(cc3[C@@H](O[C@@H]3O[C@@H]5CO[C@@H](C)O[C@H]5[C@H](O)[C@H]3O)[C@H]3COC(=O)[C@H]23)OCO4)cc(OC)c1O [etoposide]

>  <limitSign>
=

>  <resultNumber>
1

$$$$
>  <molecule>
CN(C)c1ccc(/C=C2\C(=O)Nc3ccccc32)cc1

>  <limitSign>
=

>  <resultNumber>
3

$$$$
>  <molecule>
Nc1ccc(-c2ccc3ncc4ccc(=O)n(-c5cccc(C(F)(F)F)c5)c4c3c2)cn1

>  <limitSign>
≤

>  <resultNumber>
0.3

$$$$
>  <molecule>
CN1CCC(=C2c3ccccc3CC(=O)c3sccc32)CC1

>  <limitSign>
=

>  <resultNumber>
9

$$$$
>  <molecule>
CC(C)(N)c1cc(C(=O)N[C@@H]2CCc3ccc(OC4=C5CCC(=O)N=C5NC=C4)cc3C2)cc(C(F)(F)F)c1 [ML 786 dihydrochloride]

>  <limitSign>
=

>  <resultNumber>
1

$$$$
>  <molecule>
COCc1c(C(C)C)nc(C(C)C)c(/C=C/[C@@H](O)C[C@@H](O)CC(=O)O)c1-c1ccc(F)cc1

>  <limitSign>
≤

>  <resultNumber>
0.3

$$$$
>  <molecule>
CN(C)CC(O)Cn1c2ccc(Br)cc2c2cc(Br)ccc21 (stereo not given)

>  <limitSign>
=

>  <resultNumber>
3

$$$$
>  <molecule>
Cc1ccc(-n2nc(C(C)(C)C)cc2NC(=O)Nc2ccc(OCCN3CCOCC3)c3ccccc23)cc1

>  <limitSign>
=

>  <resultNumber>
1

$$$$
>  <molecule>
CC(=O)c1c(C)c2cnc(Nc3ccc(N4CCNCC4)cn3)nc2n(C2CCCC2)c1=O

>  <limitSign>
=

>  <resultNumber>
3

$$$$
>  <molecule>
CN(C)CCCN1c2ccccc2Sc2ccc(C(F)(F)F)cc21

>  <limitSign>
=

>  <resultNumber>
9

$$$$
>  <molecule>
Cc1cn(CCN2CCN(c3ccccc3-c3cc(C#N)cc(C(=O)NCCCN4CCCC4)c3)CC2)c2ccccc12

>  <limitSign>
=

>  <resultNumber>
3

$$$$
>  <molecule>
COc1c(C=O)c(O)cc2c1C(=O)c1ccccc1C2=O

>  <limitSign>
=

>  <resultNumber>
9

$$$$
>  <molecule>
C=CC(=O)Nc1cccc(CN2C(=O)N(c3c(Cl)c(OC)cc(OC)c3Cl)Cc3cnc(NCCCCN(CC)CC)nc32)c1 [FIIN 1 hydrochloride]

>  <limitSign>
=

>  <resultNumber>
1

$$$$

// data source = the supplement of paper PMC7411054
